Tested on: NCI-H727
Test: relative viability (nuclei count vs DMSO), 5 days (fraction); higher = more cells survive
Details: first compound 50 µM
measurement type: relative viability

[[record]]
compound = "O=C(O)CCCCC(CCSCc1ccccc1)SCc1ccccc1 (stereo not given) [CPI-613] + COc1cccc2cc(-c3nc([C@H]4CC[C@H](C(=O)O)CC4)n4ncnc(N)c34)[nH]c12 [OSI-027] (partner 0.5 µM)"
system_tested = "NCI-H727"
measured = 0.461

[[record]]
compound = "O=C(O)CCCCC(CCSCc1ccccc1)SCc1ccccc1 (stereo not given) [CPI-613] + C[C@@H](Oc1cc(-c2cnn(C3CCNCC3)c2)cnc1N)c1c(Cl)ccc(F)c1Cl [Crizotinib] (partner 1 µM)"
system_tested = "NCI-H727"
measured = 0.797

[[record]]
compound = "O=C(O)CCCCC(CCSCc1ccccc1)SCc1ccccc1 (stereo not given) [CPI-613] + Nc1ncn([C@H]2C[C@H](O)[C@@H](CO)O2)c(=O)n1 [Decitabine] (partner 2 µM)"
system_tested = "NCI-H727"
measured = 0.894

[[record]]
compound = "O=C(O)CCCCC(CCSCc1ccccc1)SCc1ccccc1 (stereo not given) [CPI-613] + CC(=O)Nc1cccc(-n2c(=O)n(C3CC3)c(=O)c3c(Nc4ccc(I)cc4F)n(C)c(=O)c(C)c32)c1 [Trametinib] (partner 0.02 µM)"
system_tested = "NCI-H727"
measured = 0.396

[[record]]
compound = "O=C(O)CCCCC(CCSCc1ccccc1)SCc1ccccc1 (stereo not given) [CPI-613] + O=C(CCCCCCC(=O)Nc1ccccc1)NO [Vorinostat] (partner 1 µM)"
system_tested = "NCI-H727"
measured = 1.04


###

Entries and their measured relative viability follow.
Test system: BEN
Assay: relative viability (nuclei count vs DMSO), 5 days (fraction); higher = more cells survive
Conditions: first compound 0.253 µM
measurement type: relative viability

[[record]]
compound = "O=c1[nH]c2ccccc2n1C1CCN(CCCC(c2ccc(F)cc2)c2ccc(F)cc2)CC1 [Pimozide] + NC(=O)Nc1cc(-c2cccc(F)c2)sc1C(=O)N[C@H]1CCCNC1 [AZD7762] (partner 0.2 µM)"
measured = 0.753

[[record]]
compound = "Cc1cnc(-c2cnc(NCCNc3ccc(C#N)cn3)nc2-c2ccc(Cl)cc2Cl)[nH]1 + COc1cc2c(Oc3ccc(NC(=O)C4(C(=O)Nc5ccc(F)cc5)CC4)cc3F)ccnc2cc1OCCCN1CCOCC1 [Foretinib] (partner 0.25 µM)"
measured = 0.68

[[record]]
compound = "Cc1cnc(-c2cnc(NCCNc3ccc(C#N)cn3)nc2-c2ccc(Cl)cc2Cl)[nH]1 + Cc1nc(Nc2ncc(C(=O)Nc3c(C)cccc3Cl)s2)cc(N2CCN(CCO)CC2)n1 [Dasatinib] (partner 0.075 µM)"
measured = 0.364

[[record]]
compound = "O=c1[nH]c2ccccc2n1C1CCN(CCCC(c2ccc(F)cc2)c2ccc(F)cc2)CC1 [Pimozide] + Cc1nc(NC(=O)N2CCC[C@H]2C(N)=O)sc1-c1ccnc(C(C)(C)C(F)(F)F)c1 [Alpelisib] (partner 2 µM)"
measured = 1.09

[[record]]
compound = "O=c1[nH]c2ccccc2n1C1CCN(CCCC(c2ccc(F)cc2)c2ccc(F)cc2)CC1 [Pimozide] + CC(=O)Nc1cccc(-n2c(=O)n(C3CC3)c(=O)c3c(Nc4ccc(I)cc4F)n(C)c(=O)c(C)c32)c1 [Trametinib] (partner 0.02 µM)"
measured = 1.16


FYI, the data here is from the supplement of paper PMC10307832.
